Measurement Target: Lipocalin-2 (LCN2, NGAL) (human, UniProt P80188 21-198)
Sequence (P80188 21-198): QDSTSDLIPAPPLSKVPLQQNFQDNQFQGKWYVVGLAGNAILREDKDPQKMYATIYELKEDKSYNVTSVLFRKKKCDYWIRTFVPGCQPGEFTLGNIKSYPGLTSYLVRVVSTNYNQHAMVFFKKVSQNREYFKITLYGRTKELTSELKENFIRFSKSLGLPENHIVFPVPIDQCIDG
Assay Overview: SPR (BIAcore 3000, CM5 chip); SPR BIAcore 3000, 24 C, LCN2 amine-coupled to CM5 chip; running buffer for the Kd assay not stated (HBS-EP used for SA-chip activation)
Reported Conditions: protein: recombinant; tags: C-terminal polyhistidine
Property Name: Kd (nM)

>>> recorded_measurement("LCN2_apta21 (ssDNA) DNA: ATACCAGCTTATTCAATTCCGGATTTTCGCACGGCTAGCGGGGAACCACTGTCTGGGAGATAGTAAGTGCAATCT")
872
>>> recorded_measurement("LCN2_apta10 (ssDNA) DNA: ATACCAGCTTATTCAATTGGCAGTAGGGCGGGGGGGAGCATGGAGCACATTCTTGTCGAGATAGTAAGTGCAATCT")
99.9
>>> recorded_measurement("LCN2_apta19 (ssDNA) DNA: ATACCAGCTTATTCAATTCGACAAAGGAGCTACGTCTACATAGCGTGGTGAGTGCTTGAGATAGTAAGTGCAATCT")
66.6
>>> recorded_measurement("LCN2_apta7 (ssDNA) DNA: ATACCAGCTTATTCAATTCCGCGTCACCTCACTGCTCCCACTGCGTTGCGTCTCTAAGATAGTAAGTGCAATCT")
1.1
>>> recorded_measurement("LCN2_apta12 (ssDNA) DNA: ATACCAGCTTATTCAATTCAGGGAAAGGTTACGCGACACATTAGTTTTGAGTCCGTTCAGATAGTAAGTGCAATCT")
84.5
>>> recorded_measurement("LCN2_apta20 (ssDNA) DNA: ATACCAGCTTATTCAATTCCACAAACGGTACTGGACAGTTCTTATATGCTTACATTTGAGATAGTAAGTGCAATCT")
10.9
>>> recorded_measurement("LCN2_apta26 (ssDNA) DNA: ATACCAGCTTATTCAATTCCAACACCTTGGGTATCCTGTTATATTCACTTGTTGAGTAAGATAGTAAGTGCAATCT")
118
